// provenance: PubChem BioAssay (NCI)

Tested on: SR leukemia
protocol: NCI tumour cell line growth inhibition, 48 h
recorded-metric: TGI (µM)
Expressed in µM, but write only the number.

Task: Quick one: TGI for COC(=O)[C@]12CC[C@@H](C)[C@H](C)[C@@H]1C1=CC[C@@H]3[C@@]4(C)CC(=O)[C@H](O)[C@@](C)(CO)[C@@H]4C(=O)C[C@@]3(C)[C@]1(C)CC2 ?
Result: 27.1

Task: Quick check: TGI of CCOC(=O)C(NC(=O)c1cccc(Cl)c1)(N1CCN(c2cc3c(cc2F)c(=O)c(C(=O)O)cn3C2CC2)CC1)C(F)(F)F (stereo not drawn) ?
Result: 25.8

Task: Can you look up the measured TGI of COC(=O)N/N=C(/c1nc2ccc([N+](=O)[O-])cc2[nH]c1=O)C(O)c1ccc(OC)c(OC)c1 (stereo not drawn) for me?
Result: 39

Task: Would you mind telling me what TGI value was observed for Cc1c(O)c(Br)c(C)c(O)c1Br (tested in a mixture with another compound) ?
Result: 3.28

---

Tested on: SNB-78 CNS
protocol: NCI tumour cell line growth inhibition, 48 h
recorded-metric: TGI

Task: // TGI lookup, key: Cc1c2cc[n+](C)cc2c(C)c2c1oc1ccccc12
Result: 29.6 µM

Task: Endpoint output: TGI of CC(=O)NC(CCCNC(=O)OCc1ccccc1)C(=O)O (centres undefined) . Value?
Result: > 100 µM

Task: Could you tell me which TGI is on file for NCC1(N2CCOCC2)C2CCCC21CNc1ccccc1 (centres undefined) ?
Result: > 100 µM

Task: For the molecule shown here, CCCCCCCCCCCC(=O)OC(COC(N)=O)COc1ccc(Cl)cc1 (centres undefined) , give the reported TGI.
Result: 84.8 µM

Task: # input molecule: CCSc1nnc(-c2ccccc2)nc1Cc1ccc(OC)cc1 ; wanted: its TGI
Result: > 100 µM

Task: I'd like to know its TGI. The molecule in question is CSc1nc2nc(C(O)C(O)C(O)CO)cnc2c(=O)[nH]1 (centres undefined)
Result: > 100 µM

Task: Entry COC(=O)C1(O)c2ccccc2N=C2C1CCN2C (centres undefined) : reported TGI = ?
Result: > 100 µM

Task: Can you share its TGI? I mean this molecule: Cc1ccc2nc3c(C)cc(=O)cc-3sc2c1
Result: > 100 µM

Task: Requested field: TGI. Item: N#CC1C(=O)NC(=O)C1=O (centres undefined)
Result: > 100 µM

---

Tested on: UACC-62 melanoma
protocol: NCI tumour cell line growth inhibition, 48 h
Kindly supply the reported TGI values for the records listed here.
Kindly provide the numeric value in µM only, without the unit symbol.

Task: Entry Cc1cc(N)cc(C)c1-c1c(Br)cc(N)cc1Br has what TGI?
Result: 24

Task: Report TGI for COc1c(Br)cc(/C=C(\C#N)c2ccccn2)cc1Br please.
Result: 73.8

Task: Please give the measured TGI for this compound: COC(=O)/C=C(\C)CC/C=C(\C)CCC(O)C(C)(C)O (stereo unspecified)
Result: 77.9

---

System: LOX IMVI melanoma
protocol: NCI tumour cell line growth inhibition, 48 h
Record form. Attribute: TGI. Fill in for each entry.
# number only, unit µM dropped from output

Task: What measured TGI is associated with Cc1c2cc[n+](C)cc2c(C)c2c1oc1ccccc12 on LOX IMVI melanoma?
Result: 19.7

Task: // fetch LOX IMVI melanoma TGI for O=C(Nc1ccccc1)Nc1ccc(Cl)c(Cl)c1
Result: 16.3

Task: Any idea what TGI came out for CC(=O)Oc1ccc(/C=C/C(=O)OCCOC(=O)/C=C/c2ccc(OC(C)=O)c(OC(C)=O)c2)cc1OC(C)=O on LOX IMVI melanoma?
Result: 16.3

Task: For the record O=C1NC(=N[C@H](CO)c2ccccc2)S/C1=C\c1ccc2ncccc2c1 , what value of TGI is listed for LOX IMVI melanoma?
Result: 22

Task: Reported TGI for LOX IMVI melanoma, given CCc1ccc2c(c1)C(=O)c1c-2n(CCCN)c(=O)c2cc([N+](=O)[O-])ccc12 ?
Result: 2.62

Task: What reported TGI corresponds to C#CC(O)/C=C/C(O)CCCC(O)CC#CC(O)C#CC(O)CCCC(O)/C=C/CCCCCC(=O)CCCCCCCCCCCCCC(O)C(O)C#CC(=O)O (stereo unspecified) on LOX IMVI melanoma?
Result: 24.5

Task: Can you look up TGI on LOX IMVI melanoma for COc1cc(-c2nn(-c3cccc(NC(=O)CCN4CCN(C)CC4)c3)cc2-c2ccncc2)ccc1Cl ?
Result: 2.22

Task: Request - read-out TGI | tested on LOX IMVI melanoma | compound CO/N=C(\C)c1cccc(Nc2nc3ccccc3c3occc23)c1
Result: 31.6

Task: Return TGI measured with LOX IMVI melanoma given this compound: O=C(CSc1nc2ccc(I)cc2c(=O)n1Cc1ccccc1)NN1C(=O)c2ccccc2C1=O
Result: 44.9
